// self-cleavage lookup, one value per entry
B1: HDV Ribozyme (parent)
chain: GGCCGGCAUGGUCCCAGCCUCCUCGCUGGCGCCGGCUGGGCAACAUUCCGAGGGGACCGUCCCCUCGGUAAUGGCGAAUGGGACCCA

variants of: B1; assay: self-cleavage, relative activity (ratio to wild type); higher = more cleavage; co-transcriptional
Property Name: self-cleavage

In [3]: df
Out[3]:
    residue_change  property_name  reported_value
 0        C4U A56G  self-cleavage           0.665
 1       G10A C49G  self-cleavage            0.46
 2       C33G A43U  self-cleavage           0.175
 3        G5A C48A  self-cleavage          0.0437
 4        A8U C13A  self-cleavage               0
 5        C7U U47C  self-cleavage           0.482
 6        C4A G80U  self-cleavage           0.048
 7       U72C G76A  self-cleavage           0.962
 8         G2C G6A  self-cleavage          0.0839
 9       U46C G82U  self-cleavage           0.138
10       A83U C86U  self-cleavage            0.95
11       C15G U47A  self-cleavage           0.723
12       C26G C61G  self-cleavage           0.811
13       C14A G52C  self-cleavage           0.782
14        C4A C63G  self-cleavage          0.0755
15       G11U G28U  self-cleavage          0.0396
16       G82A C85A  self-cleavage           0.253
17       G68U A78C  self-cleavage           0.161
18       A43G G76U  self-cleavage           0.892
19       C18U G29U  self-cleavage          0.0639
20       C18G C41G  self-cleavage           0.266
21       G54C C64A  self-cleavage           0.574
